- Tested on: BDF1 mice, colon carcinoma 38 sc, T/C %
- PROTOCOL SUMMARY: NCI In Vivo Anticancer Drug Screen. Data for tumor model Colon Carcinoma 38 (subcutaneous) in B6D2F1 (BDF1) mice
- CONDITIONS USED: endpoint: median tumor weight (est.); dose: 400.0 mg/kg/injection; schedule: Q07DX002 (ip); vehicle: saline with Tween-80; higher = larger tumour
Inconclusive results are not listed.
EXPERIMENTAL ENDPOINT: T/C

[[record]]
compound = "CC(/C=C/c1ccccc1)=Nc1ccccc1"
system_name = "BDF1 mice, colon carcinoma 38 sc, T/C %"
reported_value = "185 % of control"

[[record]]
compound = "Cc1ccc2c(c1)n([O-])c1cc(Cl)ccc1[n+]2=O"
system_name = "BDF1 mice, colon carcinoma 38 sc, T/C %"
reported_value = "79 % of control"

[[record]]
compound = "Nc1ccc2nc3c4ccccc4c(O)n3nc2c1"
system_name = "BDF1 mice, colon carcinoma 38 sc, T/C %"
reported_value = "98 % of control"

[[record]]
compound = "N#CC(=C1C=CC(=NO)C=C1)c1ccc(Cl)cc1"
system_name = "BDF1 mice, colon carcinoma 38 sc, T/C %"
reported_value = "46 % of control"

[[record]]
compound = "Cc1ccc(N)c(N)c1"
system_name = "BDF1 mice, colon carcinoma 38 sc, T/C %"
reported_value = "96 % of control"

[[record]]
compound = "CCOC(=O)C1(c2ccccc2)C(=O)Oc2ccccc21 (stereo not drawn)"
system_name = "BDF1 mice, colon carcinoma 38 sc, T/C %"
reported_value = "107 % of control"

[[record]]
compound = "O=C(O)C1Cc2nc[nH]c2CN1CO (stereo not drawn)"
system_name = "BDF1 mice, colon carcinoma 38 sc, T/C %"
reported_value = "93 % of control"

[[record]]
compound = "CCC(=O)Sc1ccccc1C(=O)Nc1ccc(Cl)cc1"
system_name = "BDF1 mice, colon carcinoma 38 sc, T/C %"
reported_value = "59 % of control"

[[record]]
compound = "CCOC(=O)N1CCc2nc3ccc(Cl)cc3cc21"
system_name = "BDF1 mice, colon carcinoma 38 sc, T/C %"
reported_value = "111 % of control"

[[record]]
compound = "O=C1OCC2C(=O)OCC12 (stereo not drawn)"
system_name = "BDF1 mice, colon carcinoma 38 sc, T/C %"
reported_value = "69 % of control"

[[record]]
compound = "CC1(C)OC1CS(=O)c1ccccc1 (stereo not drawn)"
system_name = "BDF1 mice, colon carcinoma 38 sc, T/C %"
reported_value = "105 % of control"

[[record]]
compound = "Cc1c2cc(Cl)c3ccccc3c2c[n+]2ccccc12"
system_name = "BDF1 mice, colon carcinoma 38 sc, T/C %"
reported_value = "120 % of control"

[[record]]
compound = "Nc1ccc2ccc(NS(=O)(=O)N3CCCCC3)cc2c1"
system_name = "BDF1 mice, colon carcinoma 38 sc, T/C %"
reported_value = "124 % of control"

[[record]]
compound = "Cc1ccc(Cl)c2ccccc12"
system_name = "BDF1 mice, colon carcinoma 38 sc, T/C %"
reported_value = "87 % of control"

[[record]]
compound = "CC1(C)CC1(Br)Br"
system_name = "BDF1 mice, colon carcinoma 38 sc, T/C %"
reported_value = "107 % of control"

[[record]]
compound = "COC(=O)C1(F)C(=O)NC(=O)NC1OC (stereo not drawn)"
system_name = "BDF1 mice, colon carcinoma 38 sc, T/C %"
reported_value = "55 % of control"

[[record]]
compound = "COc1cc(C(C)(C)C)cc(OC)c1C(O)(c1c(OC)cc(C(C)(C)C)cc1OC)c1c(OC)cc(C(C)(C)C)cc1OC"
system_name = "BDF1 mice, colon carcinoma 38 sc, T/C %"
reported_value = "62 % of control"

[[record]]
compound = "O=C(Nc1cccc(Cl)c1)ON1C(=O)C2C(C1=O)C1(Cl)C(Cl)C(Cl)C2(Cl)C1(Cl)Cl (stereo not drawn)"
system_name = "BDF1 mice, colon carcinoma 38 sc, T/C %"
reported_value = "58 % of control"

[[record]]
compound = "COc1cc(C2c3cc4c(cc3C(O)C(CO)C2CO)OCO4)cc(OC)c1OC (stereo not drawn)"
system_name = "BDF1 mice, colon carcinoma 38 sc, T/C %"
reported_value = "174 % of control"

[[record]]
compound = "C[C@]12CC[C@@H]3c4ccc(OC(=O)Cc5ccc(N(CCCl)CCCl)cc5)cc4CC[C@H]3[C@@H]1CC[C@@H]2OC(=O)Cc1ccc(N(CCCl)CCCl)cc1"
system_name = "BDF1 mice, colon carcinoma 38 sc, T/C %"
reported_value = "256 % of control"

[[record]]
compound = "CCCCOC(=O)/C=C(\\Br)C(=O)OCCCC"
system_name = "BDF1 mice, colon carcinoma 38 sc, T/C %"
reported_value = "69 % of control"

[[record]]
compound = "OC1(CSc2ccccc2)CCCCC1"
system_name = "BDF1 mice, colon carcinoma 38 sc, T/C %"
reported_value = "77 % of control"

[[record]]
compound = "COC(=Nc1ccccc1)SSC(C)C"
system_name = "BDF1 mice, colon carcinoma 38 sc, T/C %"
reported_value = "96 % of control"

